All values here come from patent US20250270343A1.

Measured On: T1, soluble cynomolgus GPNMB (recombinant extracellular domain) (cynomolgus, UniProt Q14956 23-499 (human entry), limits assumed)
T1 chain: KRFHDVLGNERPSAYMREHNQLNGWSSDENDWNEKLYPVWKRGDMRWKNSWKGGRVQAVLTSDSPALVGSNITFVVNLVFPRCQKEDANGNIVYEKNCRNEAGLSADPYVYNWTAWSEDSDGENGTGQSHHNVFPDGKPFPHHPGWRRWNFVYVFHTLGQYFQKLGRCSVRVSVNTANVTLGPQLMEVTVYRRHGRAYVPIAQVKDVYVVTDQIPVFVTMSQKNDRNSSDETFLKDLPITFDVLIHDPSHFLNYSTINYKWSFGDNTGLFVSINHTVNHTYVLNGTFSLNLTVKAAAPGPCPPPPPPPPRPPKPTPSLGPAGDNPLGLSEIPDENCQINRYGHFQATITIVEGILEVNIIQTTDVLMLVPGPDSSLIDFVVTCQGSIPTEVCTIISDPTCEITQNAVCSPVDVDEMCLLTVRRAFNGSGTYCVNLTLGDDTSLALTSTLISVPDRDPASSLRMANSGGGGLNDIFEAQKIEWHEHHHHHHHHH
Assay Text: SPR Carterra, Ab immobilized
pKd: −log10 of the molar value.
Readout Label: pKd

>>> measured_result("anti-GPNMB antibody GPN-06 (antibody, human IgG1, V domains shown, chimeric) VH: QVQLQQSGAELVKPGASVKLSCKASGYTFTNYYMYWVKQRPGQGLEWIGEINTRNGGTNFNEKFKSKATLTVDKSSSTAYMQLSSLTSEDSAVYYCTTGFAYWGQGTLVTVSA VL: DIQMTQSPASLSASVGETVTITCRASENIYSYLVWYQQNQGKSPQLLVYNAKTLAEGVPSRFSGSGSGTQFSLKINSLQPEDFGTYYCQHHYGTPFTFGSGTKLEIK")
7.01
